# credit: the RNAGym collection of RNA variant scans (doi:10.7554/elife.80360)

B1: HDV Ribozyme (parent)
chain: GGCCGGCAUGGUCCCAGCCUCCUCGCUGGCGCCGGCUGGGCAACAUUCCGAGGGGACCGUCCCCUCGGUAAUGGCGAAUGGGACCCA

Variants of: B1
Assay Details: self-cleavage, relative activity (ratio to wild type); higher = more cleavage; co-transcriptional
// values below are reported self-cleavage

For the variant G17C A71U , give its measured self-cleavage value.
0.32

For the variant G5C G25U , give its measured self-cleavage value.
0.0475

For the variant U60G U72A , give its measured self-cleavage value.
0.458

For the variant A16G G55A , give its measured self-cleavage value.
0.943

For the variant G25U C62A , give its measured self-cleavage value.
0.138

For the variant C26G C75A , give its measured self-cleavage value.
0.266

For the variant A83U C86G , give its measured self-cleavage value.
0.361
